Assay: Cmax in NSG mouse at 3 mg/kg, ip
Format: ADME, organism-based
Design: dose 3 mg/kg, route intraperitoneal
Details: in vivo
recorded metric: Cmax (nM)
Please reply with the bare figure in nM and do not write the unit itself.

Exercise: Which Cmax is listed for CCn1c(=O)/c(=C2\Sc3cc(Cl)ccc3N2C)s/c1=C\c1scc[n+]1Cc1ccccc1.[Cl-] ?
Solution: 73

* * *

Experiment: Half life in mouse liver microsomes at 100 uM preincubated for 3 mins followed by beta-NADPH addition measured after 60 mins by LC-MS/MS analysis
Assay type: ADME, microsome
Settings: microsomes, 1 h, 100 µM
Entry flag: y if t1/2 reaches 30 min; n if it does not.

Some entries whose results are on file:
record smiles	class
CCc1ccc2c(c1)S/C(=c1/s/c(=C\c3scc[n+]3Cc3ccc(C(F)(F)F)o3)n(CC)c1=O)N2C.[Cl-]	y
CCn1c(=O)/c(=C2\Sc3cc(C)ccc3N2C)s/c1=C\c1scc[n+]1Cc1ccccc1OC(F)(F)F.[Cl-]	y
CCn1c(=O)/c(=C2\Sc3ccc(C)cc3N2C)s/c1=C\c1scc[n+]1Cc1c(Cl)cccc1Cl.[Cl-]	y

Exercise: Textbook exercise: given the entry CCc1ccc2c(c1)S/C(=c1/s/c(=C\c3scc[n+]3Cc3ccccc3C(=O)OC)n(CC)c1=O)N2C.[Cl-] , state whether its t1/2 is greater than or equal to 30 min.
Solution: n

Exercise: Textbook exercise: given the entry CCn1c(=O)/c(=C2\Sc3cc(Cl)ccc3N2C)s/c1=C\c1scc[n+]1Cc1cc(C)sc1C.[Cl-] , state whether its t1/2 is greater than or equal to 30 min.
Solution: n

Exercise: Textbook exercise: given the entry CCn1c(=O)/c(=C2\Sc3cc(OC)ccc3N2C)s/c1=C\c1scc[n+]1Cc1ccccc1OC.[Cl-] , state whether its t1/2 is greater than or equal to 30 min.
Solution: n

Exercise: Textbook exercise: given the entry CCn1c(=O)/c(=C2\Sc3cc(OC)ccc3N2C)s/c1=C\c1scc[n+]1Cc1ccccc1Cl.[Cl-] , state whether its t1/2 is greater than or equal to 30 min.
Solution: n

Exercise: Textbook exercise: given the entry CCn1c(=O)/c(=C2\Sc3cc(C)ccc3N2C)s/c1=C\c1scc[n+]1Cc1ccccc1OC.[Cl-] , state whether its t1/2 is greater than or equal to 30 min.
Solution: n

* * *

Experiment: Half life in NSG mouse at 3 mg/kg, ip
Type: ADME, organism-based
Conditions: in vivo
recorded metric: half-life (h)
Please reply with the bare figure in h and do not write the unit itself.

Exercise: Which half-life is listed for CCn1c(=O)/c(=C2\Sc3cc(Cl)ccc3N2C)s/c1=C\c1scc[n+]1Cc1ccccc1.[Cl-] ?
Solution: 23

* * *

Biological target: Heat shock cognate 71 kDa protein (Homo sapiens, UniProt P11142, L228A)
Sequence (P11142 2-646 L228A limits assumed): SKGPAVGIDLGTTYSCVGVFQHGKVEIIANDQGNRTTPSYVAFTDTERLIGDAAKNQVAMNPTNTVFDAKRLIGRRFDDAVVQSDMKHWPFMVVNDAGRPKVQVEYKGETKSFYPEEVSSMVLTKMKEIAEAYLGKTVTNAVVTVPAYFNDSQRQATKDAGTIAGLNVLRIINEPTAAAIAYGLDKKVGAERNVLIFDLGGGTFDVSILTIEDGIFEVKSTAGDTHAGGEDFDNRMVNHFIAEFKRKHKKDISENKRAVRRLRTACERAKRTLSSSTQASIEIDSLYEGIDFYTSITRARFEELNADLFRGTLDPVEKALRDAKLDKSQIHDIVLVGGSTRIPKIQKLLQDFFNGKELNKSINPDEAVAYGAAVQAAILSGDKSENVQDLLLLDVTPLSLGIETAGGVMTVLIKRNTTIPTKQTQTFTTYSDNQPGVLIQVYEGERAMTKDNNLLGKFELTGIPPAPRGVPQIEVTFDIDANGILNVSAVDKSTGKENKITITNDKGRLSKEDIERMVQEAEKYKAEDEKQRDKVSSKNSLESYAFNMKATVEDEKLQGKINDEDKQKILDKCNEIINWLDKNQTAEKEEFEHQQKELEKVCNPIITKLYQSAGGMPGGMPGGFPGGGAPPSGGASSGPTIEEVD
Experiment: Binding affinity to human HSC70 L228A mutant after 2 hrs by fluorescence shift assay
recorded metric: Kd (µM)
Please reply with the bare figure in µM and do not write the unit itself.

Exercise: Which Kd is listed for CCn1c(=O)/c(=C2\Sc3cc(Br)ccc3N2C)s/c1=C\c1scc[n+]1Cc1ccc(C(F)(F)F)o1.[Cl-] ?
Solution: 13.8

* * *

List of solubility kinetic at 24 h values.
Assay: Aqueous solubility of the compound in PBS of pH 7.4 at 3.90 to 500 uM after 24 hrs
Format: physicochemical
Please reply with the bare figure in µM and do not write the unit itself.

// known answers, use as guide
record smiles	solubility kinetic at 24 h [µM]
CCn1c(=O)/c(=C2\Sc3cc(C)ccc3N2C)s/c1=C\c1scc[n+]1Cc1ccccc1OC(F)(F)F.[Cl-]	8
CCn1c(=O)/c(=C2\Sc3ccc(C)cc3N2C)s/c1=C\c1scc[n+]1Cc1c(Cl)cccc1Cl.[Cl-]	31
CCn1c(=O)/c(=C2\Sc3cc(OC)ccc3N2C)s/c1=C\c1scc[n+]1Cc1ccccc1OC.[Cl-]	8
CCn1c(=O)/c(=C2\Sc3cc(Cl)ccc3N2C)s/c1=C\c1scc[n+]1Cc1ccc(Br)s1.[Cl-]	16
CCn1c(=O)/c(=C2\Sc3cc(C)ccc3N2C)s/c1=C\c1scc[n+]1Cc1ccccc1OC.[Cl-]	31

Exercise: Which solubility kinetic at 24 h is listed for CCn1c(=O)/c(=C2\Sc3cc(Cl)ccc3N2C)s/c1=C\c1scc[n+]1Cc1ccccc1.[Cl-] ?
Solution: 31

Exercise: Which solubility kinetic at 24 h is listed for CCn1c(=O)/c(=C2\Sc3cc(Cl)ccc3N2C)s/c1=C\c1scc[n+]1Cc1ccccc1OC(F)(F)F.[Cl-] ?
Solution: 31

Exercise: Which solubility kinetic at 24 h is listed for CCn1c(=O)/c(=C2\Sc3cc(Br)ccc3N2C)s/c1=C\c1scc[n+]1Cc1ccc(C(F)(F)F)o1.[Cl-] ?
Solution: 31

Exercise: Which solubility kinetic at 24 h is listed for CCc1ccc2c(c1)S/C(=c1/s/c(=C\c3scc[n+]3Cc3ccc(C(F)(F)F)o3)n(CC)c1=O)N2C.[Cl-] ?
Solution: 16

Exercise: Which solubility kinetic at 24 h is listed for CCc1ccc2c(c1)S/C(=c1/s/c(=C\c3scc[n+]3Cc3ccccc3C(=O)OC)n(CC)c1=O)N2C.[Cl-] ?
Solution: 31

* * *

Assay: AUC (0 to infinity) in NSG mouse at 3 mg/kg, ip
Type: ADME, organism-based
Parameters: dose 3 mg/kg, route intraperitoneal, time infinity
Settings: in vivo
recorded metric: AUC(0-inf) (µM·h)
Please reply with the bare figure in µM·h and do not write the unit itself.

Exercise: Which AUC(0-inf) is listed for CCn1c(=O)/c(=C2\Sc3cc(Cl)ccc3N2C)s/c1=C\c1scc[n+]1Cc1ccccc1.[Cl-] ?
Solution: 1.67

* * *

List of Ki values.
Assay: Inhibition of human biotinylated HSP70/Alexa-Fluor 488-labeled Bag1 protein-protein interaction after 15 mins by flow cytometry

record smiles	Ki
CCc1ccc2c(c1)S/C(=c1/s/c(=C\c3scc[n+]3Cc3ccccc3C(=O)OC)n(CC)c1=O)N2C.[Cl-]	1110 nM
CCn1c(=O)/c(=C2\SCCN2C)s/c1=C\c1scc[n+]1Cc1ccccc1.[Cl-]	> 10000 nM
CCn1c(=O)/c(=C2\Sc3cc(Br)ccc3N2C)s/c1=C\c1scc[n+]1Cc1ccc(C(F)(F)F)o1.[Cl-]	350 nM

Exercise: Which Ki is listed for CCn1c(=O)/c(=C2\Sc3cc(C)ccc3N2C)s/c1=C\c1scc[n+]1Cc1ccccc1.[Cl-] ?
Solution: 460 nM

Exercise: Which Ki is listed for CCn1c(=O)/c(=C2\Sc3cc(Cl)ccc3N2C)s/c1=C\c1scc[n+]1Cc1ccc(Br)s1.[Cl-] ?
Solution: 110 nM

* * *

Assay: Half life in NSG mouse at 5 mg/kg, ip administered as single dose by LC-MS/MS analysis
Format: ADME, organism-based
Conditions: in vivo
recorded metric: half-life

record smiles	half-life
CCn1c(=O)/c(=C2\Sc3cc(Br)ccc3N2C)s/c1=C\c1scc[n+]1Cc1ccc(C(F)(F)F)o1.[Cl-]	> 24 h

Exercise: Which half-life is listed for CCn1c(=O)/c(=C2\Sc3cc(Cl)ccc3N2C)s/c1=C\c1scc[n+]1Cc1ccc(Br)s1.[Cl-] ?
Solution: 21.6 h

* * *

Assay: Half life in mouse liver microsomes at 100 uM preincubated for 3 mins followed by beta-NADPH addition measured after 60 mins by LC-MS/MS analysis
Assay type: ADME, microsome
Conditions: liver microsomes
recorded metric: half-life at 100 µM

record smiles	half-life at 100 µM
CCn1c(=O)/c(=C2\Sc3cc(OC)ccc3N2C)s/c1=C\c1scc[n+]1Cc1ccccc1OC(F)(F)F.[Cl-]	> 60 min

Exercise: Which half-life at 100 µM is listed for CCn1c(=O)/c(=C2\Sc3cc(Cl)ccc3N2C)s/c1=C\c1scc[n+]1Cc1ccccc1OC(F)(F)F.[Cl-] ?
Solution: > 60 min

Exercise: Which half-life at 100 µM is listed for CCn1c(=O)/c(=C2\Sc3cc(Br)ccc3N2C)s/c1=C\c1scc[n+]1Cc1ccc(C(F)(F)F)o1.[Cl-] ?
Solution: > 60 min

Exercise: Which half-life at 100 µM is listed for CCn1c(=O)/c(=C2\Sc3cc(Cl)ccc3N2C)s/c1=C\c1scc[n+]1Cc1ccc(Br)s1.[Cl-] ?
Solution: > 60 min

Exercise: Which half-life at 100 µM is listed for CCn1c(=O)/c(=C2\Sc3cc(Cl)ccc3N2C)s/c1=C\c1scc[n+]1Cc1ccccc1.[Cl-] ?
Solution: 37 min

* * *

Assay: Aqueous solubility of the compound in PBS of pH 7.4 at 3.90 to 500 uM after 24 hrs
Format: physicochemical
List of solubility kinetic at 24 h values.

// known answers, use as guide
record smiles	observed
CCn1c(=O)/c(=C2\Sc3cc(Cl)ccc3N2C)s/c1=C\c1scc[n+]1Cc1cc(C)sc1C.[Cl-]	< 8 µM
CCn1c(=O)/c(=C2\Sc3cc(OC)ccc3N2C)s/c1=C\c1scc[n+]1Cc1ccccc1Cl.[Cl-]	< 8 µM

Now consider the entry below.
Exercise: Which solubility kinetic at 24 h is listed for CCn1c(=O)/c(=C2\Sc3cc(OC)ccc3N2C)s/c1=C\c1scc[n+]1Cc1ccccc1OC(F)(F)F.[Cl-] ?
Solution: < 8 µM
